Cited source: patent US12344631B2

Below is a list of entries, each paired with its recorded GSH EC50 Relative to RTA 402 (fold) (Mean ± SD) value.
System: AML-12 hepatocyte cell line
Assay: Glutathione assay (total glutathione, GSH-Glo)
Assay type: cell-based, mouse
Conditions: benchmark RTA 402
Experimental: The effect of compound treatment on total glutathione levels was evaluated in the mouse AML-12 hepatocyte cell line. […] Total glutathione concentrations were measured using the GSH-Glo Glutathione Assay kit (Promega) according to the manufacturer's instructions. […] Luminescence was measured using a PHERAstar plate reader. The EC50 value was determined using Excel and GraphPad Prism software. […]
Please give a number only; it is taken to be in fold.

Below, each entry is followed by its recorded GSH EC50 Relative to RTA 402 (fold) (Mean ± SD) result.
molecule=CC1(C)CC[C@]2(c3noc(C(F)(F)F)n3)CC[C@]3(C)[C@H](C(=O)C=C4[C@@]5(C)C=C(C#N)C(=O)C(C)(C)[C@@H]5CC[C@]43C)[C@@H]2C1 value_reported=8.96
molecule=CC1(C)CC[C@]2(c3noc(CN)n3)CC[C@]3(C)[C@H](C(=O)C=C4[C@@]5(C)C=C(C#N)C(=O)C(C)(C)[C@@H]5CC[C@]43C)[C@@H]2C1 value_reported=0.47
molecule="Cc1nnc([C@]23CCC(C)(C)C[C@H]2[C@H]2C(=O)C=C4[C@@]5(C)C=C(C#N)C(=O)C(C)(C)[C@@H]5CC[C@@]4(C)[C@]2(C)CC3)o1 [CC1, reference compound]" value_reported=0.70

Any idea what its GSH EC50 Relative to RTA 402 (fold) (Mean ± SD) is? The molecule is CC1(C)CC[C@]2(c3noc(C4CC4)n3)CC[C@]3(C)[C@H](C(=O)C=C4[C@@]5(C)C=C(C#N)C(=O)C(C)(C)[C@@H]5CC[C@]43C)[C@@H]2C1
3.36

Any idea what its GSH EC50 Relative to RTA 402 (fold) (Mean ± SD) is? The molecule is CC1(C)CC[C@]2(c3nnc(C(F)F)o3)CC[C@]3(C)[C@H](C(=O)C=C4[C@@]5(C)C=C(C#N)C(=O)C(C)(C)[C@@H]5CC[C@]43C)[C@@H]2C1
1.04

###

Test system: AML-12 hepatocyte cell line
Test: Glutathione assay (total glutathione, GSH-Glo)
Format: cell-based, mouse
Conditions: benchmark RTA 402
READOUT_KIND: GSH EC50 Relative to RTA 402 (fold) (Mean ± SD)
Please give a number only; it is taken to be in fold.

Below, each entry is followed by its recorded GSH EC50 Relative to RTA 402 (fold) (Mean ± SD) result.
compound="CC1(C)CC[C@]2(c3noc(CCO)n3)CC[C@]3(C)[C@H](C(=O)C=C4[C@@]5(C)C=C(C#N)C(=O)C(C)(C)[C@@H]5CC[C@]43C)[C@@H]2C1 [Compound T5]" value_reported=0.65
compound="CC1(C)CC[C@]2(c3noc(CO)n3)CC[C@]3(C)[C@H](C(=O)C=C4[C@@]5(C)C=C(C#N)C(=O)C(C)(C)[C@@H]5CC[C@]43C)[C@@H]2C1 [Compound T4]" value_reported=0.89
compound="CCc1noc([C@]23CCC(C)(C)C[C@H]2[C@H]2C(=O)C=C4[C@@]5(C)C=C(C#N)C(=O)[C@@H](C)[C@@H]5CC[C@@]4(C)[C@]2(C)CC3)n1 [Compound T37]" value_reported=0.88
compound="Cc1noc([C@]23CCC(C)(C)C[C@H]2[C@H]2C(=O)C=C4[C@@]5(C)C=C(C#N)C(=O)[C@@H](C)[C@@H]5CC[C@@]4(C)[C@]2(C)CC3)n1 [CC3, reference compound]" value_reported=0.43

Next:
Any idea what its GSH EC50 Relative to RTA 402 (fold) (Mean ± SD) is? The compound is CC1(C)CC[C@]2(c3noc(CF)n3)CC[C@]3(C)[C@H](C(=O)C=C4[C@@]5(C)C=C(C#N)C(=O)C(C)(C)[C@@H]5CC[C@]43C)[C@@H]2C1 [Compound T1]
0.35

###

Biological target: CYP3A4 (Homo sapiens, UniProt P08684)
Sequence (P08684 whole entry): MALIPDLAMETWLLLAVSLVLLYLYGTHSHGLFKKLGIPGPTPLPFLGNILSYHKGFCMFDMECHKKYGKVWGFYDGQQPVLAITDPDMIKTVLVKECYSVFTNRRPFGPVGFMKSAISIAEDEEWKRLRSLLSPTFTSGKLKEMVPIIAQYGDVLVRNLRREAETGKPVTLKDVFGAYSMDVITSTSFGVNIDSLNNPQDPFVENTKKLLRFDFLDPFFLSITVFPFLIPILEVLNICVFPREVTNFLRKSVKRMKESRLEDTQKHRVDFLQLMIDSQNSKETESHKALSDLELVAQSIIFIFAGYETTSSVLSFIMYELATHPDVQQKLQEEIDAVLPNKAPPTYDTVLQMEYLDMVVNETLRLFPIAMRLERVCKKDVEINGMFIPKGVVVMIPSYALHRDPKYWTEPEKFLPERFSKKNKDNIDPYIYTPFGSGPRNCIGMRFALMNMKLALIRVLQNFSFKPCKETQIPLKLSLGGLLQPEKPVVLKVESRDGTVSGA
Assay: CYP3A4 (midazolam) inhibition in human liver microsomes
Conditions: human, human liver microsomes, probe midazolam (5 μM)
READOUT_KIND: inhibition at 10 min, 1 μM (%)
Please give a number only; it is taken to be in %.

Below, each entry is followed by its recorded inhibition at 10 min, 1 μM result.
compound=CC1(C)CC[C@]2(c3nc(CF)no3)CC[C@]3(C)[C@H](C(=O)C=C4[C@@]5(C)C=C(C#N)C(=O)C(C)(C)[C@@H]5CC[C@]43C)[C@@H]2C1 value_reported=29.7
compound=CC1(C)CC[C@]2(c3noc(CN)n3)CC[C@]3(C)[C@H](C(=O)C=C4[C@@]5(C)C=C(C#N)C(=O)C(C)(C)[C@@H]5CC[C@]43C)[C@@H]2C1 value_reported=21.4
compound="Cc1noc([C@]23CCC(C)(C)C[C@H]2[C@H]2C(=O)C=C4[C@@]5(C)C=C(C#N)C(=O)[C@@H](C)[C@@H]5CC[C@@]4(C)[C@]2(C)CC3)n1 [CC3, reference compound]" value_reported=37.7
compound=CC1(C)CC[C@]2(c3noc(CF)n3)CC[C@]3(C)[C@H](C(=O)C=C4[C@@]5(C)C=C(C#N)C(=O)C(C)(C)[C@@H]5CC[C@]43C)[C@@H]2C1 value_reported=29.1
compound="Cc1nnc([C@]23CCC(C)(C)C[C@H]2[C@H]2C(=O)C=C4[C@@]5(C)C=C(C#N)C(=O)C(C)(C)[C@@H]5CC[C@@]4(C)[C@]2(C)CC3)o1 [CC1, reference compound]" value_reported=20.7
compound=C[C@@H]1C(=O)C(C#N)=C[C@]2(C)C3=CC(=O)[C@@H]4[C@@H]5CC(C)(C)CC[C@]5(c5nc(CF)no5)CC[C@@]4(C)[C@]3(C)CC[C@@H]12 value_reported=29.4

Any idea what its inhibition at 10 min, 1 μM is? The compound is Cc1noc([C@]23CCC(C)(C)C[C@H]2[C@H]2C(=O)C=C4[C@@]5(C)C=C(C#N)C(=O)C(C)(C)[C@@H]5CC[C@@]4(C)[C@]2(C)CC3)n1 [CC2, reference compound]
45.8

Any idea what its inhibition at 10 min, 1 μM is? The compound is CC1(C)CC[C@]2(c3nnc(CF)o3)CC[C@]3(C)[C@H](C(=O)C=C4[C@@]5(C)C=C(C#N)C(=O)C(C)(C)[C@@H]5CC[C@]43C)[C@@H]2C1
17.7

###

Tested on: AML-12 hepatocyte cell line
Test: Glutathione assay (total glutathione, GSH-Glo)
Format: cell-based, mouse
Settings: benchmark RTA 402
Experimental: The effect of compound treatment on total glutathione levels was evaluated in the mouse AML-12 hepatocyte cell line. […] Total glutathione concentrations were measured using the GSH-Glo Glutathione Assay kit (Promega) according to the manufacturer's instructions. […] Luminescence was measured using a PHERAstar plate reader. The EC50 value was determined using Excel and GraphPad Prism software. […]
Below is a list of entries, each paired with its recorded GSH EC50 Relative to RTA 402 (fold) (Mean ± SD) value.
Please give a number only; it is taken to be in fold.

Any idea what its GSH EC50 Relative to RTA 402 (fold) (Mean ± SD) is? The molecule is Cc1nc([C@]23CCC(C)(C)C[C@H]2[C@H]2C(=O)C=C4[C@@]5(C)C=C(C#N)C(=O)C(C)(C)[C@@H]5CC[C@@]4(C)[C@]2(C)CC3)no1 [Compound T20]
0.96

Any idea what its GSH EC50 Relative to RTA 402 (fold) (Mean ± SD) is? The molecule is CC1(C)CC[C@]2(c3noc(C(F)F)n3)CC[C@]3(C)[C@H](C(=O)C=C4[C@@]5(C)C=C(C#N)C(=O)C(C)(C)[C@@H]5CC[C@]43C)[C@@H]2C1 [Compound T41]
2.38

Any idea what its GSH EC50 Relative to RTA 402 (fold) (Mean ± SD) is? The molecule is CC1(C)CC[C@]2(c3nnn(CCF)n3)CC[C@]3(C)[C@H](C(=O)C=C4[C@@]5(C)C=C(C#N)C(=O)C(C)(C)[C@@H]5CC[C@]43C)[C@@H]2C1 [Compound T10]
1.14

###

Test system: RAW 264.7 cells
Assay: Nitric oxide suppression assay (IFNγ-induced NO production)
Type: cell-based, mouse
Settings: average of ratios from replicate experiments; benchmark RTA 402
Class 1.0: NO IC50 Relative to RTA 402 (fold) (Mean ± SD) at least 0.8 fold. Class 0.0: NO IC50 Relative to RTA 402 (fold) (Mean ± SD) below 0.8 fold.

Examples from the recorded data:
cpd_smiles=CC1(C)CC[C@]2(c3noc(CCO)n3)CC[C@]3(C)[C@H](C(=O)C=C4[C@@]5(C)C=C(C#N)C(=O)C(C)(C)[C@@H]5CC[C@]43C)[C@@H]2C1 group_label=0.0
cpd_smiles=CCc1noc([C@]23CCC(C)(C)C[C@H]2[C@H]2C(=O)C=C4[C@@]5(C)C=C(C#N)C(=O)[C@@H](C)[C@@H]5CC[C@@]4(C)[C@]2(C)CC3)n1 group_label=0.0
cpd_smiles=Cc1nc([C@]23CCC(C)(C)C[C@H]2[C@H]2C(=O)C=C4[C@@]5(C)C=C(C#N)C(=O)C(C)(C)[C@@H]5CC[C@@]4(C)[C@]2(C)CC3)no1 group_label=1.0

Can CC1(C)CC[C@]2(c3nnn(CCO)n3)CC[C@]3(C)[C@H](C(=O)C=C4[C@@]5(C)C=C(C#N)C(=O)C(C)(C)[C@@H]5CC[C@]43C)[C@@H]2C1 be said to have NO IC50 Relative to RTA 402 (fold) (Mean ± SD) at or above 0.8 fold?
0.0
